Target: T1, human ferroportin 1 (human, UniProt Q9NP59 1-571)
T1 construct: also called human FPN1; FPN1
T1 sequence: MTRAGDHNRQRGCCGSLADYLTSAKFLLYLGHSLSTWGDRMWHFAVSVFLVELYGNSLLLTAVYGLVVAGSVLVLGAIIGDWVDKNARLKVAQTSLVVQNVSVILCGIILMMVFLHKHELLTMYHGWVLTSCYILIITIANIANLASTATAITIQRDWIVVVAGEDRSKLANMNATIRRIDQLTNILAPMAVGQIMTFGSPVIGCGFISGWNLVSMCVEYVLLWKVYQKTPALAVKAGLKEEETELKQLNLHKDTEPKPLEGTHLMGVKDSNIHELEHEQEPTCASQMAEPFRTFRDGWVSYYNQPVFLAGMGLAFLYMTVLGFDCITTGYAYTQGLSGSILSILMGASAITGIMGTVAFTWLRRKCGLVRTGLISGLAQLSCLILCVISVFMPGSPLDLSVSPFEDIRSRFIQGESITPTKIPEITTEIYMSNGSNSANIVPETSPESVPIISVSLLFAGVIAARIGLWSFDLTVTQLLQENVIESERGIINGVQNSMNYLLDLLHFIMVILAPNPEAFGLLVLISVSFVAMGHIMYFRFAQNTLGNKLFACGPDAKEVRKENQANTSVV
Assay: inhibition of binding of 30 nM biotinylated hepcidin to FPN/293 cells, ELISA of lysate; antibody at 31.25 nM; mean
metric-name: % Inhibition (%)
Return type: number; implicit unit %.

Can you share its % Inhibition? I mean this binder: Mab Combi11 (antibody, human IgG4 S228P, kappa, F234A L235A, V domains shown) VH: QVQLVQSGAEVKKPGSSVKVSCKASGYAFTSFLIEWVRQAPGQGLEWMGTSNPRTGRTKYKSKFRGRVTITADKSTSTAYMELSSLRSEDTAVYYCAREFFDYWGQGTTVTVSS VL: DIQMTQSPSSLSASVGDRVTITCRASKSISKYTAWYQQKPGKAPKLLIYAGSKRHWGVPSRFSGSGSGTDFTLTISSLQPEDFATYYCQQHNEYPYTFGGGTKVEIKR
32.1
